- TEST_TARGET: D(1A) dopamine receptor (Homo sapiens)
- Sequence (P21728 whole entry): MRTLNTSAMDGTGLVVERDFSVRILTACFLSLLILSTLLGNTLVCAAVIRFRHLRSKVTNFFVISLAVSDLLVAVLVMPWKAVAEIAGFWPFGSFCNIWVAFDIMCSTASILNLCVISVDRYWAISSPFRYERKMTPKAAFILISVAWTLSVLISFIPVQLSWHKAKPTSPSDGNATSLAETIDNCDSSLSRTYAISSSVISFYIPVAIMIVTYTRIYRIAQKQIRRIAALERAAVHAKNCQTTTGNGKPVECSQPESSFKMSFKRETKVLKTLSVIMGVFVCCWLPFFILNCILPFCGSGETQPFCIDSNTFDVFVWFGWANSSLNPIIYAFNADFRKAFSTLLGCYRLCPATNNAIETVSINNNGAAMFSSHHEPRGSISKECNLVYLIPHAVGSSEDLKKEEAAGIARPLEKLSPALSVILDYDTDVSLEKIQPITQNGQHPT
- PROCEDURE_DETAILS: DRUGMATRIX: Dopamine D1 radioligand binding (ligand: [3H] SCH-23390)
- Format: cell membranes, CHO, Membrane
- CONDITIONS: Not Active = under 50% inhibition at 10 µM; read-out: Ki
EXPERIMENTAL_ENDPOINT: Ki (nM)
The answer is to be given in nM; state only the numeric part.

Which Ki value is on record for CN1C[C@H](C(=O)N[C@]2(C)O[C@@]3(O)[C@@H]4CCCN4C(=O)[C@H](Cc4ccccc4)N3C2=O)C[C@@H]2c3cccc4[nH]cc(c34)C[C@H]21 [DIHYDROERGOTAMINE] ?
1200

May I ask what Ki has been recorded for CC(C)C[C@H]1C(=O)N2CCC[C@H]2[C@]2(O)O[C@](NC(=O)[C@@H]3C=C4c5cccc6[nH]c(Br)c(c56)C[C@H]4N(C)C3)(C(C)C)C(=O)N12 ?
1440

====

- PROCEDURE_DETAILS: DRUGMATRIX: Calcium Channel Type L, Phenylalkylamine radioligand binding (ligand: [3H] (-)-Desmethoxyverapamil (D-888))
- Format: cell membranes, Rattus norvegicus, Wistar, Brain, Membrane
- CONDITIONS: Not Active = under 50% inhibition at 10 µM
EXPERIMENTAL_ENDPOINT: IC50

[[record]]
compound = "C=C(C)[C@H]1Cc2c(ccc3c2O[C@@H]2COc4cc(OC)c(OC)cc4[C@@H]2C3=O)O1 [ROTENONE]"
endpoint_value = "Not Active"

[[record]]
compound = "COc1ccc2cc(CCC(C)=O)ccc2c1 [NABUMETONE]"
endpoint_value = "Not Active"

[[record]]
compound = "CC(=O)O[C@]1(C(C)=O)CC[C@H]2[C@@H]3C=C(C)C4=CC(=O)CC[C@]4(C)[C@H]3CC[C@@]21C [MEGESTROL ACETATE]"
endpoint_value = "Not Active"

[[record]]
compound = "CC(=O)O[C@H]1C[C@@H]2CC[C@@H]3[C@H](CC[C@@]4(C)[C@H]3C[C@H]([N+]3(C)CCCCC3)[C@@H]4OC(C)=O)[C@@]2(C)C[C@@H]1N1CCCCC1.[Br-] [VECURONIUM BROMIDE]"
endpoint_value = "Not Active"

[[record]]
compound = "CCOC(=O)n1ccn(C)c1=S [CARBIMAZOLE]"
endpoint_value = "Not Active"


Recorded IC50 of CN(CCOc1ccc(CC2SC(=O)NC2=O)cc1)c1ccccn1 (configuration not stated) [ROSIGLITAZONE] , please.
Not Active

So what does the record say about IC50 for CC(C)C[C@H]1C(=O)N2CCC[C@H]2[C@]2(O)O[C@](NC(=O)[C@@H]3C=C4c5cccc6[nH]c(Br)c(c56)C[C@H]4N(C)C3)(C(C)C)C(=O)N12 [BROMOCRIPTINE] ?
Not Active

====

- TEST_TARGET: Platelet-activating factor receptor (Homo sapiens); further: in other assays of this panel Not Active means under 50% inhibition at 10 µM
- Sequence (P25105 whole entry): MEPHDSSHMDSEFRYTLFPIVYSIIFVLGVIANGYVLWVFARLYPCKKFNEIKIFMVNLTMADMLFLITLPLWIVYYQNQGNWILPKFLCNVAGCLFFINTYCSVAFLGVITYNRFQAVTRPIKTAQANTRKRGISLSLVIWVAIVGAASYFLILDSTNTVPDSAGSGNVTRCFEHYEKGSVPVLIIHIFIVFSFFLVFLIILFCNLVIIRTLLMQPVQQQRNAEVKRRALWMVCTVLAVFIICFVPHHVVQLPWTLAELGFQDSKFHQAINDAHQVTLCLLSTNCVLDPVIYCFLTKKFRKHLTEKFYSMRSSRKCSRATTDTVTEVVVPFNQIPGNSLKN
- PROCEDURE_DETAILS: biochemical
- Type: tissue-based
- CONDITIONS: read-out: Ki
EXPERIMENTAL_ENDPOINT: Ki (µM)
API: value field is a number in µM; no unit string.

What reported Ki corresponds to CN(C(=O)CCCOc1ccc2[nH]c(=O)ccc2c1)C1CCCCC1 [CILOSTAMIDE] on Platelet-activating factor receptor (Homo sapiens)?
1.92
